Measurement target: BRD4 BD1 protein (Homo sapiens, UniProt O60885)
Assay notes: biochemical
Experimental readout: IC50 (µM)
The answer is to be given in µM; state only the numeric part.

Sample `Cc1cc2c(s1)-n1c(C)nnc1COC2` ; IC50 observed: 4.4

* * *

Measurement target: BRD4 BD1 protein (Homo sapiens, UniProt O60885)
Assay notes: biochemical
Experimental readout: pKi
Answer as the number alone; pKi is minus log10 of concentration in mol/L.

pKi reported for this compound `Cc1cc2c(s1)-n1c(C)nnc1COC2` : 5.82
